Assay: viability loss in pontine glioma line – cell-based, SU-DIPG-XIII, MIPE5.0, CellTiter-Glo, qHTS, dose response (AID 1347064);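 for AC50: cells exposed to compound for 48 hours before the viability read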
Details: CellTiter-Glo ATP luminescence
Inconclusive results are not listed. Activity calls are given as the source filed them. No cut-off is given here; in the data, nearly all actives have AC50 up to about 23 µM.
# valid calls are TRUE = active, FALSE = inactive; nothing else

molecule	assigned_category
O=c1[nH]c([C@@H]2CCCN2)nc2c1oc1ccc(Cl)cc12	TRUE
CCc1cccc2c3c([nH]c12)[C@@](CC)(CC(=O)O)OCC3	FALSE
CCCC1(CCC)CCC2(CCN(CCCN(CC)CC)C2)CC1	TRUE

Ask: Could you kindly confirm the outcome this assay logged for CN1CCN(C2CCN(C(=O)Nc3cc(Oc4ccc(NC(=O)C5(C(=O)Nc6ccc(F)cc6)CC5)c(F)c4)ccn3)CC2)CC1 ?
Reply: TRUE

Ask: Status in this test for Cn1ncc(Cl)c1-c1cc(C(=O)NC(CN)Cc2ccc(F)c(F)c2)oc1Cl (centres undefined) ?
Reply: TRUE

Ask: Field: outcome | Entry: CCCCOC(=O)NS(=O)(=O)c1sc(CC(C)C)cc1-c1ccc(Cn2ccnc2)cc1
Reply: FALSE

Ask: Write down the call the test reported for this molecule. Item: COc1ccc2c(C(=S)N(C)CC(=O)O)cccc2c1C(F)(F)F
Reply: FALSE

Ask: // return assay outcome for N#CCNC(=O)c1ccc(-c2ccnc(Nc3ccc(N4CCOCC4)cc3)n2)cc1
Reply: TRUE

Ask: For CN[C@H]1CCc2cc(OC)c(OC)c(OC)c2-c2ccc(OC)c(=O)cc21 , what call appears in the results of this test?
Reply: TRUE

Ask: What did the test return for Nc1ncnc2c1c(-c1cnc3[nH]ccc3c1)nn2C1CCCC1 ?
Reply: TRUE

Ask: # fetch the recorded call for Nc1nc(-c2nn(Cc3ccccc3F)c3ncccc23)nc(N)c1N1CCOCC1 here
Reply: FALSE

Ask: What did the test return for COC(=O)Nc1cc(Nc2cc(NC3CC3)c3ncc(C#N)n3n2)c(Cl)c(N2CCN(C)CC2)c1 ?
Reply: TRUE

Ask: // param item: NC(=O)C1CCCc2c1[nH]c1ccc(Cl)cc21 (centres undefined) ; yields the recorded call
Reply: FALSE

Ask: Which outcome did this test record for the molecule COc1cc2c(cc1OCCCN1CCCC1)N=C(N)C21CCC1 ?
Reply: FALSE

Ask: Please let me know the test result on file for COC(=O)N1CCN(Cc2cccc(NC(=O)Nc3ccc(C)nc3)c2F)CC1 .
Reply: FALSE

Ask: Which outcome did this test record for the molecule O=C(/C=C/c1ccc(CN(CCO)CCc2c[nH]c3ccccc23)cc1)NO ?
Reply: TRUE

Ask: Please indicate how the test categorized Nc1cccc2c1CN([C@H]1CCC(=O)NC1=O)C2=O .
Reply: FALSE

Ask: Which result was noted for this molecule in the test: COc1cc2c(Oc3ccc(-c4cnc(Nc5ccc(F)cc5)n(C)c4=O)cc3F)ccnc2cc1OCCCN1CCOCC1
Reply: TRUE

Ask: I'd appreciate the recorded outcome for CCCCCCCCCC(=O)N[C@@H](Cc1c[nH]c2ccccc12)C(=O)N[C@H](CC(N)=O)C(=O)N[C@@H](CC(=O)O)C(=O)N[C@@H]1C(=O)NCC(=O)N[C@@H](CCCN)C(=O)N[C@@H](CC(=O)O)C(=O)N[C@H](C)C(=O)N[C@@H](CC(=O)O)C(=O)NCC(=O)N[C@H](CO)C(=O)N[C@@H]([C@@H](C)CC(=O)O)C(=O)N[C@@H](CC(=O)c2ccccc2N)C(=O)O[C@@H]1C from this test.
Reply: FALSE

Ask: Could you check what this test reported for Oc1ccc(-c2ccc(-c3cc(Nc4cccc(CNC5CC5)c4)n[nH]3)cc2)c(O)c1 ?
Reply: TRUE

Ask: Returns: the outcome recorded for CCN(C(=O)c1ccccc1OC)c1cc2c(cc1N1CCNC[C@H]1C)n(C)c(=O)n2C in this assay.
Reply: FALSE

Ask: In this assay, the call recorded for COc1cc(N2CCN(C)CC2)ccc1Nc1nccc(-c2cn(C)c3cnccc23)n1 was what?
Reply: TRUE

Ask: Lab log entry: O=C(Cc1ccc(-c2ccc(OCCN3CCOCC3)cc2)cn1)NCc1ccccc1 — outcome as called in the assay?
Reply: TRUE

Ask: # outcome recorded in this test, key = Cc1ccc(-n2c(C)cc(-c3nnc4n3CCCCC4)c2C)cc1
Reply: TRUE

Ask: Test call, this molecule: Cc1cc([C@@H](C)Nc2ccccc2C(=O)O)c2nc(N3CCOCC3)cc(=O)n2c1
Reply: TRUE

Ask: Returns: the outcome recorded for C=CC(=O)Nc1cc(N2CCN(CC)CC2)ccc1Nc1cc(N(C)C(=O)Nc2c(Cl)c(OC)cc(OC)c2Cl)ncn1 in this assay.
Reply: TRUE

###

Assay: viability loss in pontine glioma line – cell-based, SU-DIPG-XVII, MIPE5.0, CellTiter-Glo, qHTS, dose response (AID 1347060);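 for AC50: cells exposed to compound for 48 hours before viability readout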
Settings: CellTiter-Glo ATP luminescence
Results filed as inconclusive are left out. Activity calls are given as the source filed them. The limit is not given here; nearly all actives have AC50 up to about 26 µM.
# valid calls are active, inactive; nothing else

molecule	assigned_category
COc1cc(C(N)=O)ccc1NC(=O)[C@@H]1N[C@@H](CC(C)(C)C)[C@@]2(C(=O)Nc3cc(Cl)ccc32)[C@H]1c1cccc(Cl)c1F	active
O=c1cc(N2CCOCC2)oc2c(-c3ccc4c(c3)OCCO4)csc12	active
COc1cc(OC)c(/C=C/S(=O)(=O)Cc2ccc(OC)c(NCC(=O)O)c2)c(OC)c1	active

Ask: Please let me know the test result on file for Clc1cccc(-n2nnnc2NCc2ccccc2Oc2ccccn2)c1Cl .
Reply: inactive

Ask: What is the recorded call for this molecule in the test? CCC[C@H](NC(=O)[C@@H]1[C@H]2CCC[C@H]2CN1C(=O)[C@@H](NC(=O)[C@@H](NC(=O)c1cnccn1)C1CCCCC1)C(C)(C)C)C(=O)C(=O)NC1CC1
Reply: inactive

Ask: What classification did CC(=O)c1cnc2ccc(-c3cc(Cl)c(O)c(Cl)c3)nc2c1NC1CCC(CN(C)C)CC1 (centres undefined) end up with in this test?
Reply: active

Ask: Which result was noted for this molecule in the test: CC[C@@]1([C@@H]2O[C@@H]([C@H]3O[C@@](O)(CO)[C@H](C)C[C@@H]3C)C[C@@H]2C)CC[C@H]([C@]2(C)CC[C@]3(C[C@H](O)[C@@H](C)[C@@H]([C@@H](C)[C@@H](OC)[C@H](C)C(=O)O)O3)O2)O1
Reply: active

Ask: Each molecule tested received a call. Report the one for C[C@@H](OC[C@@]1(c2ccccc2)CC[C@]2(CCC(=O)N2)CN1)c1cc(C(F)(F)F)cc(C(F)(F)F)c1 .
Reply: active

Ask: Outcome logged for CO[C@@H]1[C@@H](O)[C@H](O)[C@@H](n2c3c(Cl)cccc3c3c4c(c5c6cccc(Cl)c6[nH]c5c32)C(=O)NC4=O)O[C@H]1CO in this assay:
Reply: active

###

Experiment: drug combination growth inhibition, ovarian cancer – cell-based, oncology-focused library, rucaparib conditional, profiling panel (AID 1508598)
Details: patient-derived ovarian cancer cells, CellTiter-Glo viability, 144 h; at 1.25 µM; OCI-P5x cells; with rucaparib 20 µM; stronger effect = lower value; 100% = cells with rucaparib alone
Classify on viability using low (below 40%), moderate (40% to below 90%), high (90% or more)

> print(dat)
                                smiles.code  assigned.category
1  CC(C)OC(=O)C1=CN(C(=O)c2ccc(F)c(F)c2)CC(C)(C)c2c1[nH]c1ccccc21               high
2  COc1ncc(-c2ccc3nccc(-c4ccnnc4)c3c2)cc1NS(=O)(=O)c1ccc(F)cc1F                low
3  CN1CCN(c2nc(C3=C(c4c[nH]c5ccccc45)C(=O)NC3=O)c3ccccc3n2)CC1               high
4  CC(C)(C)c1cc(NC(=O)Nc2ccc(-c3cn4c(n3)sc3cc(OCCN5CCOCC5)ccc34)cc2)no1           moderate
5  CC(=O)Nc1cccc(-n2c(=O)n(C3CC3)c(=O)c3c(Nc4ccc(I)cc4F)n(C)c(=O)c(C)c32)c1                low
6  N#CCNC(=O)c1ccc(-c2ccnc(Nc3ccc(N4CCOCC4)cc3)n2)cc1           moderate
7  Cn1cncc1[C@@](N)(c1ccc(Cl)cc1)c1ccc2c(c1)c(-c1cccc(Cl)c1)cc(=O)n2C                low
8  Cc1ccc(F)c(NC(=O)Nc2ccc(-c3cccc4[nH]nc(N)c34)cc2)c1               high

Here is another compound to look at.
Ask: Textbook exercise: identify the category of the compound given here, Cn1cc(CNCC2CCN(c3ncc(C(=O)NO)cn3)CC2)c2ccccc21 , according to its measured value.
Reply: low
